- tested.target: T1, Cynomolgus monkey CD98 ECD with C-terminal His-tag (cynomolgus monkey, UniProt P08195 105-529 (human entry))
- T1 construct: also called cyCD98 ECD; recombinant cynomolgus monkey CD98 extracellular domain
- T1 chain: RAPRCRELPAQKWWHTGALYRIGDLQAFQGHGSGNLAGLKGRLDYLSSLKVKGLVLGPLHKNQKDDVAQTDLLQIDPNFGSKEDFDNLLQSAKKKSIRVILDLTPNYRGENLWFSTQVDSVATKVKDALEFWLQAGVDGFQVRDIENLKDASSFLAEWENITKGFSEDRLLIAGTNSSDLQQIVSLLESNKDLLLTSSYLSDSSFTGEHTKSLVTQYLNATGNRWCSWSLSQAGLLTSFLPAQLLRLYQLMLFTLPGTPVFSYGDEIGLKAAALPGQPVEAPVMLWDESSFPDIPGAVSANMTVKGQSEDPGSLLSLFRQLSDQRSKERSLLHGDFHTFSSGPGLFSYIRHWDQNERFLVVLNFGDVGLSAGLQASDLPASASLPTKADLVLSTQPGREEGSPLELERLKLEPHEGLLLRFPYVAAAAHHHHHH
- assay.name: SPR Biacore, anti-Fc capture of mAb, CD98 ECD analyte
pKd: −log10 of the molar value.
measure: pKd

* Recombinant anti-CD98 chimeric antibody chAb1 (antibody, human IgG1, V domains shown) VH: EVKLVESGGGLVQPGGSLRLSCATSGFTFTDYYMSWVRQPPGKALEWLGFIRNPANVYTTEYSASVKGRFTISRDNSQSILYLQMNTLRAEDSATYYCARASYGNSEGWFAYWGQGTLVTVSA VL: DIVMSQSPSSLAVSVGEKVTMSCKSSQNLLYNNNQKNYLAWYQQKPGQSPKLLIYWASTRESGVPDRFTGSGSGTDFTLTISSVKAEDLAVYYCQQYYSYPRTFGGGTKLEIK | 9.10
* Recombinant anti-CD98 chimeric antibody chAb7 (antibody, human IgG1, V domains shown) VH: QVQLKESGPGLVQPSQTLSLTCTVSGFSLSTYGVIWVRQPPGKGLEWMGVIWANGNTNYNSTLKSRLSISRDTSKSQVYLKMNSLQTEDTATYYCARHYYDGTYYYGYFDYWGQGVMVTVSS VL: DIVMTQTPSSQAVSAGEKVTMNCKSSQSLLYSENKKNYLAWYQQKPGQSPKLLIYWASTRESGVPDRFIGSGSGTDFTLTISSVQAEDLAVYYCQQYYYFPYTFGPGTKLELK | 8.46
* Recombinant anti-CD98 chimeric antibody chAb11 (antibody, human IgG1, V domains shown) VH: EVQLVESGGGLVQPGRSLKLSCAASGFTFSDYAMAWVRQAPKKGLEWVAGIIYDGRGTYYRDSVKGRFTISRDNAKSTLYLQMDSLRSEDTATYYCARQGDGTYYYWGYFDYWGQGVMVTVSS VL: DIVMTQSPSSLAVSAGETVTINCRSSQSLLSSGNQKNYLAWYQQKPGQSPKLLIYWASTRQSGVPDRFIGSGSGTDFTLTISSVQAEDLAIYYCQQYYDTPYTFGAGTKLELK | 6.96
* Recombinant anti-CD98 chimeric antibody chAb13 (antibody, human IgG1, V domains shown, also called chAbl 3) VH: QVQLKESGPGLVQPSQTLSLTCTVSGFSLSSYGVIWVRQPPGKGLEWMGIIWANGNTNYNSALKSRLSISRDTSKSQVYLKMNSLQTEDTATYYCARHYYDGTHYYGYFDYWGQGVMVTVSS VL: DTVMTQTPSSQAVSAGEKVTMSCKSSQSLLYSENKKKYLAWYQQKPGQSPKLLIYWASTRESGVPDRFIGSGSGTDFTLTISSVQAEDLAVYYCQQYYNFPYTFGAGTKLELK | 8.15
* Recombinant anti-CD98 chimeric antibody chAb8 (antibody, human IgG1, V domains shown) VH: EVQLVESGGGLVQPGRSLKLSCAASGFTFSDYAMAWVRQAPKKGLEWVASIIYDGRGTYYRDSVKGRFTISRDNAKSTLYLQMDSLRSEDTATYYCARQGDGTYYYWGYFDYWGQGVMVTVSS VL: DIVMTQSPSSLAVSAGETVTINCKSSQSLLSSGNQKNYLAWYQQKPGQSPKLLIYWASTRQSGVPDRFIGSGSGTDFTLTINSVQAEDLAIYYCQQYYDTPYTFGAGTKLELK | 7.77
